Where these numbers come from: patent US20240391954A1

Target: human MC4R receptor (human, UniProt P32245 1-332)
Sequence (P32245 whole entry): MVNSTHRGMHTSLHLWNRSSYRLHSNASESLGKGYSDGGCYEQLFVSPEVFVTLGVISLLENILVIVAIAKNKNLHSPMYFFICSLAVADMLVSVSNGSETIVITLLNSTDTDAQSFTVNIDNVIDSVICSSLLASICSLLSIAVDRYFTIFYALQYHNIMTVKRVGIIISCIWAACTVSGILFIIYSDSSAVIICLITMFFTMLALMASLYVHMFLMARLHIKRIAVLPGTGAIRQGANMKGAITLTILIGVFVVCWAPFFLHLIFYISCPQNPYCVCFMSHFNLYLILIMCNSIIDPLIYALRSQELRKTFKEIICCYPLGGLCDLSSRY
Assay: cell-based or functional assay
Starred links: 1 amine or outer side, 2 acyl side, 3 side chain; linkers in the order of their positions; H or OH if unused. Positions of bridges follow the written chain, without caps; N, C: chain ends. Non-standard residues stand in square brackets, D forms with d. dTyr(4-OMe) = O-methyl-D-tyrosine (4-OMe), COc1ccc(C[C@@H](N[*:1])C(=O)[*:2])cc1; dPhe(4-Br) = N[C@H](Cc1ccc(Br)cc1)C(=O)O; d2Nal = N[C@H](Cc1ccc2ccccc2c1)C(=O)O; Tic = O=C(O)[C@@H]1Cc2ccccc2CN1
Listing of recorded MC4R selectivity vs MC3R by entry.
Just the number, please, no unit after it.

Would you please look over these solved cases?
Given item Ac-RC[dA]P[d2Nal]RWC-NH2 (disulfide 2-8; SMILES CC(=O)N[C@@H](CCCNC(=N)N)C(=O)N[C@H]1CSSC[C@@H](C(N)=O)NC(=O)[C@H](Cc2c[nH]c3ccccc23)NC(=O)[C@H](CCCNC(=N)N)NC(=O)[C@@H](Cc2ccc3ccccc3c2)NC(=O)[C@@H]2CCCN2C(=O)[C@@H](C)NC1=O) [CTX-2203] , the value recorded as its MC4R selectivity vs MC3R is 2.45

Given item Ac-RC[dA]R[dPhe(4-Br)]R[dF]C-NH2 (disulfide 2-8; SMILES CC(=O)N[C@@H](CCCNC(=N)N)C(=O)N[C@H]1CSSC[C@@H](C(N)=O)NC(=O)[C@@H](Cc2ccccc2)NC(=O)[C@H](CCCNC(=N)N)NC(=O)[C@@H](Cc2ccc(Br)cc2)NC(=O)[C@H](CCCNC(=N)N)NC(=O)[C@@H](C)NC1=O) [CTX-1255] , the value recorded as its MC4R selectivity vs MC3R is 0.24

Given item Ac-RC[dA]R[dPhe(4-Br)]R[dW]CK-NH2 (disulfide 2-8; SMILES CC(=O)N[C@@H](CCCNC(=N)N)C(=O)N[C@H]1CSSC[C@@H](C(=O)N[C@@H](CCCCN)C(N)=O)NC(=O)[C@@H](Cc2c[nH]c3ccccc23)NC(=O)[C@H](CCCNC(=N)N)NC(=O)[C@@H](Cc2ccc(Br)cc2)NC(=O)[C@H](CCCNC(=N)N)NC(=O)[C@@H](C)NC1=O) [CTX-1218] , the value recorded as its MC4R selectivity vs MC3R is 1.85

Given item Ac-CGR[dTyr(4-OMe)]RFC-NH2 (disulfide 1-7; SMILES COc1ccc(C[C@H]2NC(=O)[C@H](CCCNC(=N)N)NC(=O)CNC(=O)[C@@H](NC(C)=O)CSSC[C@@H](C(N)=O)NC(=O)[C@H](Cc3ccccc3)NC(=O)[C@H](CCCNC(=N)N)NC2=O)cc1) [CTX-1641] , the value recorded as its MC4R selectivity vs MC3R is 1.18

Given item Ac-RC[dA]R[dPhe(4-Br)]R[dW]CR[dF]-NH2 (disulfide 2-8; SMILES CC(=O)N[C@@H](CCCNC(=N)N)C(=O)N[C@H]1CSSC[C@@H](C(=O)N[C@@H](CCCNC(=N)N)C(=O)N[C@H](Cc2ccccc2)C(N)=O)NC(=O)[C@@H](Cc2c[nH]c3ccccc23)NC(=O)[C@H](CCCNC(=N)N)NC(=O)[C@@H](Cc2ccc(Br)cc2)NC(=O)[C@H](CCCNC(=N)N)NC(=O)[C@@H](C)NC1=O) [CTX-1222] , the value recorded as its MC4R selectivity vs MC3R is 0.33

---
Given item Ac-RC[dA]R[dPhe(4-Br)]R[Tic]C-NH2 (disulfide 2-8) [CTX-1259] , the value recorded as its MC4R selectivity vs MC3R is 0.12

Given item Ac-RC[dA]R[dPhe(4-Br)]R[dW]CRFG-OH (disulfide 2-8; SMILES CC(=O)N[C@@H](CCCNC(=N)N)C(=O)N[C@H]1CSSC[C@@H](C(=O)N[C@@H](CCCNC(=N)N)C(=O)N[C@@H](Cc2ccccc2)C(=O)NCC(=O)O)NC(=O)[C@@H](Cc2c[nH]c3ccccc23)NC(=O)[C@H](CCCNC(=N)N)NC(=O)[C@@H](Cc2ccc(Br)cc2)NC(=O)[C@H](CCCNC(=N)N)NC(=O)[C@@H](C)NC1=O) [CTX-1219] , the value recorded as its MC4R selectivity vs MC3R is 1.99
